# system: UniProt Q9Y463
# Sequence (Q9Y463 whole entry, looked up): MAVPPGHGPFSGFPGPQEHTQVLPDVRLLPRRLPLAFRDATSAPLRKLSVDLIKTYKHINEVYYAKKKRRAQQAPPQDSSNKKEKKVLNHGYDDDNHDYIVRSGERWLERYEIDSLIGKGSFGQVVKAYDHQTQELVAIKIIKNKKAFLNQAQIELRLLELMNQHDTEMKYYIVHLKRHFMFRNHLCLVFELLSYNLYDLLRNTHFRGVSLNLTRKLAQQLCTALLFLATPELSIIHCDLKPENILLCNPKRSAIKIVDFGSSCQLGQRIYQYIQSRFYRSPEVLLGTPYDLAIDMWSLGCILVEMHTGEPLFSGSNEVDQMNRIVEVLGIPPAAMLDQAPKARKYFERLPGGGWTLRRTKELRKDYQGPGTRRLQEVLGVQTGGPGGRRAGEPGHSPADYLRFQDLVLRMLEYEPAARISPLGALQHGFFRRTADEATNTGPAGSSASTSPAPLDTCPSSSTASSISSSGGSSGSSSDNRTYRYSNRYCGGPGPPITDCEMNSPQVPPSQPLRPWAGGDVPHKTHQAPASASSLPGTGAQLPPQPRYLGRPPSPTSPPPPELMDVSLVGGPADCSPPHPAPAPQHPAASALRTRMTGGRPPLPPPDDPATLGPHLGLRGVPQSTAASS
# method.description: radiometric filter-binding kinase assay, Kinase HotSpot
# reported.conditions: compound 0.5 µM; ATP 10 µM
Recorded residual activity values for a group of molecules are listed next.
measure.name: residual activity

• c1ccc(-c2cnc(Nc3ccc(OCCN4CCCC4)cc3)s2)cc1 = 95.4%
• CCOc1cc2ncnc(Nc3cccc(Br)c3)c2cc1OCC = 103%
• O=C1NC(=O)c2cc(Nc3ccc(F)cc3)c(Nc3ccc(F)cc3)cc21 = 105%
• Cn1cc(/C=C2\C(=O)Nc3ccc(S(N)(=O)=O)cc32)c2ccccc21 = 104%
• COc1cc2c(cc1OC)-c1[nH]nc(Nc3cccc(F)c3)c1C2 = 102%
